The measurements presented in this section are drawn from patent US20030022283A1.

Target: T1, Rat NPY Y5 receptor, Y861 clone (rat, UniProt Q63634 1-445)
T1 construct: also called RAT Y861 Clone; Rat Y5 (Y861)
T1 sequence: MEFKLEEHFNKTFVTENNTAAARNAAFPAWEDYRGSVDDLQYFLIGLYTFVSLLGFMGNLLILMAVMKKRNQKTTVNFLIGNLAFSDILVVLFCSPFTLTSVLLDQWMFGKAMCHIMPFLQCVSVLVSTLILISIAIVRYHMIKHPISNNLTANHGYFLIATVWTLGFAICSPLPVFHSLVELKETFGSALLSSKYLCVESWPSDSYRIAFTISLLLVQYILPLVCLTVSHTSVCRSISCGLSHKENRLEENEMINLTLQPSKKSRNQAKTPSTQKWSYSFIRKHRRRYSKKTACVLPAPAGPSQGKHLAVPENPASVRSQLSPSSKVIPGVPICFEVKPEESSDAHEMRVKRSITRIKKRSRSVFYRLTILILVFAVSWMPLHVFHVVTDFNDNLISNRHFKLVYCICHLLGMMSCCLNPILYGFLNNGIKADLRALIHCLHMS
Assay: competition with [125I]PYY, membranes of stably transfected 293S cells
parameterMeasured: Ki (nM)
Give bare numbers, in nM.

{"binder": "APLEPMYPGDYATHEQRAQYETQLRRYINTLTRPRY (ligand, UniProt P06303 30-65, looked up, mature; also called rPP; rat PP) [rat pancreatic polypeptide]", "Ki / nM": 203}

Entry APLEPVYPGDNATPEQMAQYAADLRRYINMLTRPRY (ligand, UniProt P01298 30-65, looked up, mature; also called hPP) [human pancreatic polypeptide] has what Ki?
2.5
